Would you mind telling me the reported protein stability index of each entry?
B1: C1orf137 (parent)
chain: RQHHHQSSFPGSLPQETNLTLKVC

# Variants of: B1
# ASSAY_REMARKS: protein stability index of a GFP-peptide fusion (GPS, HEK-293T) (PSI 1-6); higher = more stable;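 further: lentivirally expressed fusions sorted by FACS into six bins by GFP to DsRed ratio, PSI derived from sequencing read proportions per bin multiplied by bin number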
# SETTINGS: c terminus: a fixed tail appended
Lab note: record the figure alone, no unit after it.

q: # lookup: protein stability index of S7T
a: 3.34

q: What would you report for E16M ?
a: 2.48

q: Another variant: H4C
a: 2.87

q: S8W , same question.
a: 2

q: Then what about the variant S12D ?
a: 3.19

q: Try this variant next: H5Y
a: 2.85

q: Next: G11V
a: 2.98

q: Now consider T20H and answer again.
a: 2.48

q: Ok, now G11S
a: 2.9

q: What would you report for C24E ?
a: 4.19

q: Another variant to check: T20Y
a: 1.75

q: Cool, now P14Q
a: 3.44

q: Entry Q6N please
a: 2.71

q: Now the same for R1I
a: 3.28

q: Ok, now L19D
a: 4.63

q: Try this variant next: Q2G
a: 3.57

q: How about C24N ?
a: 3.7

q: And L13W ?
a: 3.13

q: Same again, this time with F9N
a: 3.88

q: Here is the next variant: L21V
a: 3.23

q: Thanks! And S8V ?
a: 2.78

q: What about S12W ?
a: 2.44

q: Note, next up: C24W
a: 2.9

q: V23F , same question.
a: 2.5

q: Cool, now T17P
a: 2.98

q: Input Q15W
a: 2.29

q: Now give it for N18F too.
a: 2.55

q: Here is the next variant: H3Q
a: 3.06

q: What would you report for L19P ?
a: 3.31

q: // repeat for P14I and report
a: 2.24

q: Consider next the variant Q2V in the same way.
a: 2.47

q: Ok, now N18E
a: 2.77

q: Can you handle Q6M next?
a: 2.23

q: What do you get for T20I ?
a: 2.13

q: Proceed to T20Q
a: 3.83

q: Lookup C24R
a: 4.68

q: Another variant to check: Q2L
a: 2.4

q: Ok, now Q6K
a: 3.15

q: Moving on to the next variant: V23N
a: 3.34

q: Try H5D next.
a: 3.36

q: Continue with H5A
a: 3.06

q: And S12T ?
a: 2.99

q: Same read-out for L21N ?
a: 4.32

q: Cool, now T17Q
a: 3.24

q: Do the same for H5M please
a: 2.63

q: Thanks! And G11N ?
a: 3.01

q: What do we get for C24K ?
a: 4.11

q: Repeat with K22L
a: 1.94

q: Then L21Q ?
a: 3.95

q: Next: V23E
a: 4.27

q: Now consider H5C .
a: 3.25

q: Param item: S7Q
a: 3.05

q: Also, E16F please.
a: 2.28

q: What about this variant? N18R
a: 2.29

q: Next up: R1F
a: 1.63

q: Next variant up: H3E
a: 3.69

q: Follow-up entry: P10M
a: 2.19

q: Now consider F9Y .
a: 3.41

q: Okay, and L13F ?
a: 2.78

q: Likewise for C24Q ?
a: 3.37

q: Entry to check: T17S
a: 3.02

q: Also P10Q ?
a: 3.06

q: Same thing, different variant: S12Y
a: 2.27

q: Then what about the variant E16W ?
a: 1.55

q: What do you have for T20G ?
a: 3.23

q: Another variant to look at: F9C
a: 3.16

q: Entry to check: P14S
a: 2.72

q: Note, next up: Q6Y
a: 2.9

q: Record: C24I
a: 1.9

q: And then C24M , what is it?
a: 2.44

q: Follow-up item: Q6P
a: 2.55

q: What about L21M ?
a: 3.79

q: Also N18Y , if possible.
a: 2.08

q: Can you handle S7Y next?
a: 2.54

q: Also Q2P ?
a: 2.77

q: Could you do the same for Q2S , please?
a: 2.43

q: Another variant to check: Q6R
a: 4.03

q: // same read-out, input: H3T
a: 3.13

q: For V23G then?
a: 4.43

q: And what about the variant Q6S ?
a: 3.25

q: // repeat for S12A and report
a: 3.19

q: Same again, this time with S12N
a: 2.99

q: // same read-out, input: T20D
a: 4.1

q: Same lookup for P10Y , please.
a: 2.4

q: And then P10V , what is it?
a: 2.65

q: # iterate: S7I
a: 2.77

q: Another: T20W
a: 2.18

q: Follow-up item: S8T
a: 2.71

q: Next record, please: V23L
a: 3.03

q: // next record Q15G
a: 2.19

q: Also check K22F
a: 2.14

These data points were gathered from the supplement of paper PMC10567573.
